total protein half-life in vivo values for the sequences below.
- method notes: total protein half-life in vivo (active degradation + dilution); higher = more stable protein
- recorded conditions: wild type E. coli NCM3722; growth: C-lim chemostat; doubling time 12 h
Expressed in h, but write only the number.

Would you please look over these solved cases?
| primary sequence | scale unit | measured |
| --- | --- | --- |
| MHPMLNIAVRAARKAGNLIAKNYETPDAVEASQKGSNDFVTNVDKAAEAVIIDTIRKSYPQHTIITEESGELEGTDQDVQWVIDPLDGTTNFIKRLPHFAVSIAVRIKGRTEVAVVYDPMRNELFTATRGQGAQLNGYRLRGSTARDLDGTILATGFPFKAKQYATTYINIVGKLFNECADFRRTGSAALDLAYVAAGRVDGFFEIGLRPWDFAAGELLVREAGGIVSDFTGGHNYMLTGNIVAGNPRVVKAMLANMRDELSDALKR [P0ADG4] | h | 12 |
| MTTRVIALDLDGTLLTPKKTLLPSSIEALARAREAGYQLIIVTGRHHVAIHPFYQALALDTPAICCNGTYLYDYHAKTVLEADPMPVIKALQLIEMLNEHHIHGLMYVDDAMVYEHPTGHVIRTSNWAQTLPPEQRPTFTQVASLAETAQQVNAVWKFALTHDDLPQLQHFGKHVEHELGLECEWSWHDQVDIARGGNSKGKRLTKWVEAQGWSMENVVAFGDNFNDISMLEAAGTGVAMGNADDAVKARANIVIGDNTTDSIAQFIYSHLI | h | 3.08 |
| MSQNLDATAINQIHALISAQGVNEIISKIGADAVALPENFRIHDLEKFNLNRFRFRGALSTASIDDFTRYSKDLADEGTRCFIDADNMRAVSVLNLGTIDEPGHADNTATLKLKKTAPFSALLSVNGERNSQKSLAEWIEDWADYLVGFDANGDAIQATKAAAAIRKITIEANQTADFEDNDFSGKRSLMESVEAKTKDIMPVAFEFKCVPFEGLKERPFKLRLSIITGDRPVLVLRIIQLEAVQEDMANEFRDLLVEKFKDSKVETFIGTFTA | h | 9.79 |

Data request, read-out total protein half-life in vivo, for MKLTIIRLEKFSDQDRIDLQKIWPEYSPSSLQVDDNHRIYAARFNERLLAAVRVTLSGTEGALDSLRVREVTRRRGVGQYLLEEVLRNNPGVSCWWMADAGVEDRGVMTAFMQALGFTAQQGGWEKC 11.9

Data request, read-out total protein half-life in vivo, for MSNQFGDTRIDDDLTLLSETLEEVLRSSGDPADQKYVELKARAEKALDDVKKRVSQASDSYYYRAKQAVYRADDYVHEKPWQGIGVGAAVGLVLGLLLARR [P0AEH5] 10.1

Data request, read-out total protein half-life in vivo, for MRTVKVFEEAWPLHTPFVIARGSRSEARVVVVELEEEGIKGTGECTPYPRYGESDASVMAQIMSVVPQLEKGLTREELQKILPAGAARNALDCALWDLAARRQQQSLADLIGITLPETVITAQTVVIGTPDQMANSASTLWQAGAKLLKVKLDNHLISERMVAIRTAVPDATLIVDANESWRAEGLAARCQLLADLGVAMLEQPLPAQDDAALENFIHPLPICADESCHTRSNLKALKGRYEMVNIKLDKTGGLTEALALATEARAQGFSLMLGCMLCTSRAISAALPLVPQVSFADLDGPTWLAVDVEPALQFTTGELHL 9.31

Data request, read-out total protein half-life in vivo, for MQENQQITKKEQYNLNKLQKRLRRNVGEAIADFNMIEEGDRIMVCLSGGKDSYTMLEILRNLQQSAPINFSLVAVNLDQKQPGFPEHVLPEYLEKLGVEYKIVEENTYGIVKEKIPEGKTTCSLCSRLRRGILYRTATELGATKIALGHHRDDILQTLFLNMFYGGKMKGMPPKLMSDDGKHIVIRPLAYCREKDIQRFADAKAFPIIPCNLCGSQPNLQRQVIADMLRDWDKRYPGRIETMFSAMQNVVPSHLCDTNLFDFKGITHGSEVVNGGDLAFDREEIPLQPACWQPEEDENQLDELRLNVVEVK 2.85

Data request, read-out total protein half-life in vivo, for MSFFHASQRDALNQSLAEVQGQINVSFEFFPPRTSEMEQTLWNSIDRLSSLKPKFVSVTYGANSGERDRTHSIIKGIKDRTGLEAAPHLTCIDATPDELRTIARDYWNNGIRHIVALRGDLPPGSGKPEMYASDLVTLLKEVADFDISVAAYPEVHPEAKSAQADLLNLKRKVDAGANRAITQFFFDVESYLRFRDRCVSAGIDVEIIPGILPVSNFKQAKKFADMTNVRIPAWMAQMFDGLDDDAETRKLVGANIAMDMVKILSREGVKDFHFYTLNRAEMSYAICHTLGVRPGL [P0AEZ1] 8.59

Data request, read-out total protein half-life in vivo, for MLTVKQIEAAKPKEKPYRLLDGNGLYLYVPVSGKKVWQLRYKIDGKEKILTVGKYPLMTLQEARDKAWTARKDISVGIDPVKAKKASSNNNSFSAIYKEWYEHKKQVWSVGYATELAKMFDDDILPIIGGLEIQDIEPMQLLEVIRRFEDRGAMERANKARRRCGEVFRYAIVTGRAKYNPAPDLADAMKGYRKKNFPFLPADQIPAFNKALATFSGSIVSLIATKVLRYTALRTKELRSMLWKNVDFENRIITIDASVMKGRKIHVVPMSDQVVELLTTLSSITKPVSEFVFAGRNDKKKPICENAVLLVIKQIGYEGLESGHGFRHEFSTIMNEHEWPADAIEVQLAHANGGSVRGIYNHAQYLDKRREMMQWWADWLDEKVE 10.3

Data request, read-out total protein half-life in vivo, for MSSNFRHQLLSLSLLVGIAAPWAAFAQAPISSVGSGSVEDRVTQLERISNAHSQLLTQLQQQLSDNQSDIDSLRGQIQENQYQLNQVVERQKQILLQIDSLSSGGAAAQSTSGDQSGAAASTTPTADAGTANAGAPVKSGNANTDYNAAIALVQDKSRQDDAMVAFQNFIKNYPDSTYLPNANYWLGQLNYNKGKKDDAAYYFASVVKNYPKSPKAADAMFKVGVIMQDKGDTAKAKAVYQQVISKYPGTDGAKQAQKRLNAM 8.8

Data request, read-out total protein half-life in vivo, for MTMTRLKISKTLLAVMLTSAVATGSAYAENNAQTTNESAGQKVDSSMNKVGNFMDDSAITAKVKAALVDHDNIKSTDISVKTDQKVVTLSGFVESQAQAEEAVKVAKGVEGVTSVSDKLHVRDAKEGSVKGYAGDTATTSEIKAKLLADDIVPSRHVKVETTDGVVQLSGTVDSQAQSDRAESIAKAVDGVKSVKNDLKTK [P0AFH8] 8.26

Data request, read-out total protein half-life in vivo, for MMELMVVHPHIFWLSLGGLLLAAEMLGGNGYLLWSGVAAVITGLVVWLVPLGWEWQGVMFAILTLLAAWLWWKWLSRRVREQKHSDSHLNQRGQQLIGRRFVLESPLVNGRGHMRVGDSSWPVSASEDLGAGTHVEVIAIEGITLHIRAVSS [P0AAS3] 10.5
